test: in vitro; conditions: PAMPA
value kind: Papp at 100 µM (×10⁻⁶ cm/s)
Write the answer as a number in ×10⁻⁶ cm/s, unit excluded.

[Q] State its Papp at 100 µM for this compound: CN(C)CCCN1c2ccccc2Sc2ccccc21 [PROMAZINE]
[A] 9.4

[Q] State its Papp at 100 µM for this compound: CC(=O)[C@H]1CC[C@H]2[C@@H]3CCC4=CC(=O)CC[C@]4(C)[C@H]3CC[C@]12C [PROGESTERONE]
[A] 10.8

[Q] State its Papp at 100 µM for this compound: C[C@]12CC[C@H]3[C@@H](CCC4=CC(=O)CC[C@@]43C)[C@@H]1CC[C@@H]2O [TESTOSTERONE]
[A] 11.6
